test system: P. aeruginosa (16 clinical isolates); experiment: Antibacterial activity on representative drug-resistance bacteria: number of clinical isolates per MIC value; assay type: cell-based; conditions: MIC 0.5 ug/mL; P. aeruginosa (N = 16)
measurement_label: number of clinical isolates that showed the respective MIC value
Could you respond with only the numeric value?

Input: Fill in: number of clinical isolates that showed the respective MIC value of C[C@H](O/N=C(\C(=O)N[C@@H]1C(=O)N2C(C(=O)[O-])=C(C[n+]3cnc(N)c(NCCNC(=O)c4cc(=O)c(O)cn4O)c3)CSC12)c1nc(N)sc1Cl)C(=O)O (stereo partly shown) is ___
Output: 2

Input: Can you handle CC(C)(O/N=C(\C(=O)N[C@@H]1C(=O)N2C(C(=O)[O-])=C(/C=C/C[n+]3cnc(N)c(NCCNC(=O)c4cc(=O)c(O)cn4O)c3)CSC12)c1csc(N)n1)C(=O)O (stereo partly shown) [Compound 8] next?
Output: 2

Input: Also CC(C)(O/N=C(\C(=O)N[C@@H]1C(=O)N2C(C(=O)[O-])=C(/C=C/C[n+]3cnc(N)c(NCCNC(=O)c4cc(=O)c(O)cn4O)c3)CSC12)c1csc(N)n1)C(=O)O (stereo partly shown) [Compound 11] ?
Output: 3

Input: Moving on to the next compound: CC(C)(O/N=C(\C(=O)N[C@@H]1C(=O)N2C(C(=O)[O-])=C(/C=C/C[n+]3cnc(N)c(NCCNC(=O)c4cc(=O)c(O)cn4O)c3)CSC12)c1nc(N)sc1Cl)C(=O)O (stereo partly shown)
Output: 3
